Molecular target: Bcl-2 protein (Recombinant Human Bcl-2 Protein) (Homo sapiens, UniProt P10415)
Construct: purchased Novus Biologicals NBP2-34889
Sequence (P10415 whole entry): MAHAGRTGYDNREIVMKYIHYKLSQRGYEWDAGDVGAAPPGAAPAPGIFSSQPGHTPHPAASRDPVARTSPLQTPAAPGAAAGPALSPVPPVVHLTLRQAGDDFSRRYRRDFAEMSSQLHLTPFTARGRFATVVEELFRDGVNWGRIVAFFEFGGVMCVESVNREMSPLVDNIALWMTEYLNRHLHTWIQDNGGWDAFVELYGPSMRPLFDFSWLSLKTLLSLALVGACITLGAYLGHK
Assay: AS-MS evaluation of binding of the Example 4 mixture library (1200 compounds/well) to Bcl-2, ASMS ratio (%)
Conditions: AS-MS, Example 4 mixture library, Bcl-2, replicate n = 2

compound	ASMS ratio (%) n = 2
CCOc1cccc(-c2cc(C(=O)N3CCN(c4ccc(C(=O)NS(=O)(=O)CCC(F)(F)F)cc4)CC3)cc(C(C)(C)C)c2)c1 [Compound B2N037-01]	0.0
CCOc1cccc(-c2cc(C(=O)N3CCN(c4ccc(C(=O)NS(=O)(=O)c5ccc(NCCSc6ccccc6)c(C(F)(F)F)c5)cc4)CC3)cc(C(C)(C)C)c2)c1 [Compound B2R037-01]	−7.0
CCOc1cncc(-c2cc(C(=O)N3CCN(c4ccc(C(=O)NS(=O)(=O)CCC(F)(F)F)nn4)CC3)cc(C(F)(F)F)c2)c1 [Compound B2N018-01]	1.0
CCOc1cncc(-c2ccc(C(=O)N3CCN(c4ccc(C(=O)NS(=O)(=O)c5ccc(NCCSc6ccccc6)c(C(F)(F)F)c5)cc4)CC3)c3ccccc23)c1 [Compound B2R036-01]	−0.8
CCOc1cccc(-c2ccc(C(=O)N3CCN(c4ccc(C(=O)NS(=O)(=O)CCC(F)(F)F)nn4)CC3)cc2C)c1 [Compound B2N003-01]	0.0
CCOc1cccc(-c2csc(C(=O)N3CCN(c4ccc(C(=O)NS(=O)(=O)c5ccc(NCCSc6ccccc6)c(C(F)(F)F)c5)cc4)CC3)c2)c1 [Compound B2R023-01]	−15.5
